Each entry below carries its reported AC50.
Molecular target: Alpha-1A adrenergic receptor (Homo sapiens, UniProt P35348); note: assay procedure not described here
Sequence (P35348 whole entry): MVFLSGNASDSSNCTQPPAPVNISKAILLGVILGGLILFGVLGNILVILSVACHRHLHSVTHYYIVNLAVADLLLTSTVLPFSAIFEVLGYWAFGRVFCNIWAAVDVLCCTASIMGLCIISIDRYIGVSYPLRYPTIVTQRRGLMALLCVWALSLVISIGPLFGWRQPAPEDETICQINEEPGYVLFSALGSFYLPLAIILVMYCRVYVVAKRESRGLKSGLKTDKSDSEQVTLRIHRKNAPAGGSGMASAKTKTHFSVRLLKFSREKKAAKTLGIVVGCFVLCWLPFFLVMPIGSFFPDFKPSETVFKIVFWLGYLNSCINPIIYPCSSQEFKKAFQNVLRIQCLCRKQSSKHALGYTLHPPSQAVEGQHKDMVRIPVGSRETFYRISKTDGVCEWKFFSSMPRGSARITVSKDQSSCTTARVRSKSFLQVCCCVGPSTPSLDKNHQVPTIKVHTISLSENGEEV
Assay type: functional, cell-based

# example entries with known answers
NC(=O)c1cnccn1 [PYRAZINAMIDE] :: > 30 µM
OC[C@@H](O)[C@@H](O)[C@H](O)[C@H](O)CO :: > 30 µM
OCCN1CCN(CCCN2c3ccccc3C=Cc3ccccc32)CC1 :: 1.07 µM
O=C(COc1ccc(Cl)cc1)N1CCN(Cc2ccc3c(c2)OCO3)CC1 [FIPEXIDE] :: 13.3 µM
NS(=O)(=O)c1cc2c(cc1Cl)NC(C1CC3C=CC1C3)NS2(=O)=O (centres undefined) [CYCLOTHIAZIDE] :: > 30 µM

Q: Quote AC50 reported for CN(C)CCCN1c2ccccc2CCc2ccc(Cl)cc21 please.
Result: 0.0154 µM

Q: Give the value of AC50 reported for the following: COc1cc(NCc2ccc3nc(N)nc(N)c3c2C)cc(OC)c1OC [TRIMETREXATE]
Result: > 30 µM

Q: Please report the measured AC50 for O=C(O)CCCN1CCC(O[C@@H](c2ccc(Cl)cc2)c2ccccn2)CC1
Result: > 30 µM

Q: Recall and state the measured AC50 for O=C(NC[C@H]1CN(c2ccc(N3CCOCC3=O)cc2)C(=O)O1)c1ccc(Cl)s1 .
Result: > 3 µM
